Would you kindly list relative viability for each of these compounds?
- Test system: NCI-H322M
- protocolText: relative viability (nuclei count vs DMSO), 5 days (fraction); higher = more cells survive
- settings: first compound 6.325 µM

Cc1csc(=NC2CCCCC2)n1/N=C/c1ccc(O)c(O)c1O [MIM1] + C[C@]1(O)C[C@@H](c2nc(-c3ccc4ccc(-c5ccccc5)nc4c3)c3c(N)nccn32)C1 [Linsitinib] (partner 1 µM) yielded relative viability of 0.905

Cc1csc(=NC2CCCCC2)n1/N=C/c1ccc(O)c(O)c1O [MIM1] + CC(C)C[C@H](NC(=O)[C@H](Cc1ccccc1)NC(=O)c1cnccn1)B(O)O [Bortezomib] (partner 0.002 µM) yielded relative viability of 1.17

Cc1csc(=NC2CCCCC2)n1/N=C/c1ccc(O)c(O)c1O [MIM1] + COc1cccc2cc(-c3nc([C@H]4CC[C@H](C(=O)O)CC4)n4ncnc(N)c34)[nH]c12 [OSI-027] (partner 0.5 µM) yielded relative viability of 0.508

###

Would you kindly list relative viability for each of these molecules?
- Test system: LK-2
- protocolText: relative viability (nuclei count vs DMSO), 5 days (fraction); higher = more cells survive
- settings: first compound 0.03162 µM

Cc1cn(-c2cc(NC(=O)c3ccc(C)c(Nc4nccc(-c5cccnc5)n4)c3)cc(C(F)(F)F)c2)cn1 [Nilotinib] + N=C(N)NC(=N)NCCc1ccccc1 [Phenformin] (partner 250 µM) yielded relative viability of 0.22

Cc1cn(-c2cc(NC(=O)c3ccc(C)c(Nc4nccc(-c5cccnc5)n4)c3)cc(C(F)(F)F)c2)cn1 [Nilotinib] + COc1cccc2cc(-c3nc([C@H]4CC[C@H](C(=O)O)CC4)n4ncnc(N)c34)[nH]c12 [OSI-027] (partner 0.5 µM) yielded relative viability of 0.178

Cc1cn(-c2cc(NC(=O)c3ccc(C)c(Nc4nccc(-c5cccnc5)n4)c3)cc(C(F)(F)F)c2)cn1 [Nilotinib] + CC1(C)CCC(c2ccc(Cl)cc2)=C(CN2CCN(c3ccc(C(=O)NS(=O)(=O)c4ccc(N[C@H](CCN5CCOCC5)CSc5ccccc5)c(S(=O)(=O)C(F)(F)F)c4)cc3)CC2)C1 [Navitoclax] (partner 0.5 µM) yielded relative viability of 0.743

Cc1cn(-c2cc(NC(=O)c3ccc(C)c(Nc4nccc(-c5cccnc5)n4)c3)cc(C(F)(F)F)c2)cn1 [Nilotinib] + CS(=O)(=O)CCNCc1ccc(-c2ccc3ncnc(Nc4ccc(OCc5cccc(F)c5)c(Cl)c4)c3c2)o1 [Lapatinib] (partner 2 µM) yielded relative viability of 0.875

###

- Tested on: NCI-H520
- protocolText: relative viability (nuclei count vs DMSO), 5 days (fraction); higher = more cells survive
- settings: first compound 0.06325 µM
recordedMetric: relative viability
Give only the figure.

CCNC(=O)c1noc(-c2cc(C(C)C)c(O)cc2O)c1-c1ccc(CN2CCOCC2)cc1 [Luminespib] + COc1cccc2cc(-c3nc([C@H]4CC[C@H](C(=O)O)CC4)n4ncnc(N)c34)[nH]c12 [OSI-027] (partner 0.5 µM) yielded relative viability of 0.159

CCNC(=O)c1noc(-c2cc(C(C)C)c(O)cc2O)c1-c1ccc(CN2CCOCC2)cc1 [Luminespib] + Cc1cc(Nc2cc(N3CCN(C)CC3)nc(Sc3ccc(NC(=O)C4CC4)cc3)n2)n[nH]1 [Tozasertib] (partner 0.1 µM) yielded relative viability of 0.195

###

Would you kindly list relative viability for each of these molecules?
- System: LC-2-ad
- protocolText: relative viability (nuclei count vs DMSO), 5 days (fraction); higher = more cells survive
- settings: first compound 0.003162 µM
Give only the figure.

Cc1cn(-c2cc(NC(=O)c3ccc(C)c(Nc4nccc(-c5cccnc5)n4)c3)cc(C(F)(F)F)c2)cn1 [Nilotinib] + Cc1nc(Nc2ncc(C(=O)Nc3c(C)cccc3Cl)s2)cc(N2CCN(CCO)CC2)n1 [Dasatinib] (partner 0.075 µM) yielded relative viability of 0.701

Cc1cn(-c2cc(NC(=O)c3ccc(C)c(Nc4nccc(-c5cccnc5)n4)c3)cc(C(F)(F)F)c2)cn1 [Nilotinib] + Nc1nc2[nH]cc(CCc3ccc(C(=O)N[C@@H](CCC(=O)O)C(=O)O)cc3)c2c(=O)[nH]1 [Pemetrexed] (partner 0.2 µM) yielded relative viability of 0.251

Cc1cn(-c2cc(NC(=O)c3ccc(C)c(Nc4nccc(-c5cccnc5)n4)c3)cc(C(F)(F)F)c2)cn1 [Nilotinib] + CC1(C)CCC(c2ccc(Cl)cc2)=C(CN2CCN(c3ccc(C(=O)NS(=O)(=O)c4ccc(N[C@H](CCN5CCOCC5)CSc5ccccc5)c(S(=O)(=O)C(F)(F)F)c4)cc3)CC2)C1 [Navitoclax] (partner 0.5 µM) yielded relative viability of 0.396

Cc1cn(-c2cc(NC(=O)c3ccc(C)c(Nc4nccc(-c5cccnc5)n4)c3)cc(C(F)(F)F)c2)cn1 [Nilotinib] + O=C(CCCCCCC(=O)Nc1ccccc1)NO [Vorinostat] (partner 1 µM) yielded relative viability of 0.851

Cc1cn(-c2cc(NC(=O)c3ccc(C)c(Nc4nccc(-c5cccnc5)n4)c3)cc(C(F)(F)F)c2)cn1 [Nilotinib] + CS(=O)(=O)N1CCN(Cc2cc3nc(-c4cccc5[nH]ncc45)nc(N4CCOCC4)c3s2)CC1 [Pictilisib] (partner 1 µM) yielded relative viability of 0.518

Cc1cn(-c2cc(NC(=O)c3ccc(C)c(Nc4nccc(-c5cccnc5)n4)c3)cc(C(F)(F)F)c2)cn1 [Nilotinib] + NC(=O)Nc1cc(-c2cccc(F)c2)sc1C(=O)N[C@H]1CCCNC1 [AZD7762] (partner 0.2 µM) yielded relative viability of 1.01

Cc1cn(-c2cc(NC(=O)c3ccc(C)c(Nc4nccc(-c5cccnc5)n4)c3)cc(C(F)(F)F)c2)cn1 [Nilotinib] + C[C@]1(O)C[C@@H](c2nc(-c3ccc4ccc(-c5ccccc5)nc4c3)c3c(N)nccn32)C1 [Linsitinib] (partner 1 µM) yielded relative viability of 0.985

###

- Test system: NCI-H1792
- protocolText: relative viability (nuclei count vs DMSO), 5 days (fraction); higher = more cells survive
- settings: first compound 0.8 µM
recordedMetric: relative viability
Give only the figure.

Entry Nc1cccc2c1CN(C1CCC(=O)NC1=O)C2=O (centres undefined) [Lenalidomide] + Cc1nc(NC(=O)N2CCC[C@H]2C(N)=O)sc1-c1ccnc(C(C)(C)C(F)(F)F)c1 [Alpelisib] (partner 2 µM) under NCI-H1792 had relative viability of 0.604

Entry Nc1cccc2c1CN(C1CCC(=O)NC1=O)C2=O (centres undefined) [Lenalidomide] + Nc1ncn([C@H]2C[C@H](O)[C@@H](CO)O2)c(=O)n1 [Decitabine] (partner 2 µM) under NCI-H1792 had relative viability of 0.454

Entry Nc1cccc2c1CN(C1CCC(=O)NC1=O)C2=O (centres undefined) [Lenalidomide] + CC(=O)c1c(C)c2cnc(Nc3ccc(N4CCNCC4)cn3)nc2n(C2CCCC2)c1=O [Palbociclib] (partner 0.5 µM) under NCI-H1792 had relative viability of 0.754

Entry Nc1cccc2c1CN(C1CCC(=O)NC1=O)C2=O (centres undefined) [Lenalidomide] + NC(=O)Nc1cc(-c2cccc(F)c2)sc1C(=O)N[C@H]1CCCNC1 [AZD7762] (partner 0.2 µM) under NCI-H1792 had relative viability of 0.571

###

- System: HOP-62
- protocolText: relative viability (nuclei count vs DMSO), 5 days (fraction); higher = more cells survive
- settings: first compound 2 µM
Would you kindly list relative viability for each of these compounds?

CN1CCN(CCOc2cc(OC3CCOCC3)c3c(Nc4c(Cl)ccc5c4OCO5)ncnc3c2)CC1 [Saracatinib] + Nc1ncn([C@H]2C[C@H](O)[C@@H](CO)O2)c(=O)n1 [Decitabine] (partner 2 µM) yielded relative viability of 0.185

CN1CCN(CCOc2cc(OC3CCOCC3)c3c(Nc4c(Cl)ccc5c4OCO5)ncnc3c2)CC1 [Saracatinib] + Cc1nc(NC(=O)N2CCC[C@H]2C(N)=O)sc1-c1ccnc(C(C)(C)C(F)(F)F)c1 [Alpelisib] (partner 2 µM) yielded relative viability of 0.749

Cc1csc(=NC2CCCCC2)n1/N=C/c1ccc(O)c(O)c1O [MIM1] + N=C(N)NC(=N)NCCc1ccccc1 [Phenformin] (partner 250 µM) yielded relative viability of 0.624

Cc1csc(=NC2CCCCC2)n1/N=C/c1ccc(O)c(O)c1O [MIM1] + CC1(C)CCC(c2ccc(Cl)cc2)=C(CN2CCN(c3ccc(C(=O)NS(=O)(=O)c4ccc(N[C@H](CCN5CCOCC5)CSc5ccccc5)c(S(=O)(=O)C(F)(F)F)c4)cc3)CC2)C1 [Navitoclax] (partner 0.5 µM) yielded relative viability of 0.525

CN1CCN(CCOc2cc(OC3CCOCC3)c3c(Nc4c(Cl)ccc5c4OCO5)ncnc3c2)CC1 [Saracatinib] + C[C@@H](Oc1cc(-c2cnn(C3CCNCC3)c2)cnc1N)c1c(Cl)ccc(F)c1Cl [Crizotinib] (partner 1 µM) yielded relative viability of 1.02

CN1CCN(CCOc2cc(OC3CCOCC3)c3c(Nc4c(Cl)ccc5c4OCO5)ncnc3c2)CC1 [Saracatinib] + NC(=O)Nc1cc(-c2cccc(F)c2)sc1C(=O)N[C@H]1CCCNC1 [AZD7762] (partner 0.2 µM) yielded relative viability of 0.905
